These measurements were taken from patent US20210290541A1.

# assayMethodText: organic solvent solubility
# Type: physicochemical
# testContext: acetone/water mixture (95:5 v/v), organic solvent or mixture; volume ratio 95:5; read-out: solubility in a mixed solution of acetone and water
measurementType: solubility

Lookup: I would be grateful if you could share the reported solubility for Cc1cc(N2C(=O)NC(=O)C2(C)C)cc(C)c1CCS(=O)(=O)N1CCC2(CC1)N=C(c1ccc(OC(F)(F)F)cc1)NC2=O [Compound I] .
Found: ≥ 50 mg/mL

###

# assayMethodText: solubility in FaSSIF (excess amount, stirring 24 hours or more, centrifugation, HPLC)
# Format: physicochemical
# testContext: FaSSIF, 37 °C, pH 6.5, fassif, thermodynamic from solid
measurementType: solubility (µg/mL)
Use µg/mL as the unit, but write only the number.

Lookup: I have this compound here, Cc1cc(N2C(=O)NC(=O)C2(C)C)cc(C)c1CCS(=O)(=O)N1CCC2(CC1)N=C(c1ccc(OC(F)(F)F)cc1)NC2=O , and I need its recorded solubility.
Found: 1
